- tested_on: T1, human GARP-proTGFβ1 complex (human, UniProt Q14392 20-627; P01137 30-390)
- T1 construct: also called hGARP-proTGFβ1; hGARP
- test_protocol: BLI (Octet)
endpoint_label: Kd (nM)
I only need the number, in nM, no unit after it.

Exam item: # input binder: Ab29 (antibody, IgG4, V domains shown) VH: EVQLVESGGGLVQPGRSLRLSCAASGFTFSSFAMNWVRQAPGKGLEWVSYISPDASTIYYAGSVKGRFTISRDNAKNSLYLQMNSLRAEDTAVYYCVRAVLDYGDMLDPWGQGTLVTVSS VL: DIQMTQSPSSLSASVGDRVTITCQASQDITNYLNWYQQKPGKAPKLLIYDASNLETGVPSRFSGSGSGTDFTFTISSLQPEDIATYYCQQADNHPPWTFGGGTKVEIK ; wanted: its Kd
Marked response: 0.307

Exam item: Proceed to Ab2 (antibody, human IgG4 S228P, kappa, V domains shown) VH: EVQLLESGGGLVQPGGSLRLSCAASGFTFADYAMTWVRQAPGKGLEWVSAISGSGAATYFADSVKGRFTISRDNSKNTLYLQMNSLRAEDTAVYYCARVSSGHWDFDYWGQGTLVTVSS VL: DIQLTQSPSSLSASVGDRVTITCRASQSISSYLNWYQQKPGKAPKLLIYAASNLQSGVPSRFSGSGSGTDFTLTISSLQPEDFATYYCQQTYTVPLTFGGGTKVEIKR
Marked response: 0.778

Exam item: # iterate: Ab28 (antibody, V domains shown) VH: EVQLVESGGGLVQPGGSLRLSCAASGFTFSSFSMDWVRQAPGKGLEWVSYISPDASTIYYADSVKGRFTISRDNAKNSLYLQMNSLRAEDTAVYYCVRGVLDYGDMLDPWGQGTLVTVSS VL: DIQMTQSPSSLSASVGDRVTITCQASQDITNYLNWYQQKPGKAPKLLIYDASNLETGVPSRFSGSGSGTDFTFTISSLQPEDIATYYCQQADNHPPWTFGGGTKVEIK
Marked response: 0.797

Exam item: Try this binder next: Ab26 (antibody, IgG4, V domains shown) VH: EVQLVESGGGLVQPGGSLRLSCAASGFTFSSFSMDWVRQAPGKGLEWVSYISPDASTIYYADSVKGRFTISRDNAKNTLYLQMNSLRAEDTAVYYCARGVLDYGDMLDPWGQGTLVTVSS VL: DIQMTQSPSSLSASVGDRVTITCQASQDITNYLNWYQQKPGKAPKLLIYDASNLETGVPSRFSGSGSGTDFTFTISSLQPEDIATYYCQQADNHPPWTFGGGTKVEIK
Marked response: 0.625

Exam item: Also check Ab6 (antibody, human IgG4 S228P, kappa, V domains shown) VH: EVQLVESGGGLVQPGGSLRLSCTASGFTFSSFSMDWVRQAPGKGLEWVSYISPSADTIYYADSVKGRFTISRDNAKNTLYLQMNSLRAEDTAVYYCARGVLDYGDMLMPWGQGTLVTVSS VL: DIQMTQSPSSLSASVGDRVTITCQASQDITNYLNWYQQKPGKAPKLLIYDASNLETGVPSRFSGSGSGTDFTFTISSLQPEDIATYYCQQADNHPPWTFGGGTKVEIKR
Marked response: 0.404

Exam item: Another binder to check: Ab27 (antibody, V domains shown) VH: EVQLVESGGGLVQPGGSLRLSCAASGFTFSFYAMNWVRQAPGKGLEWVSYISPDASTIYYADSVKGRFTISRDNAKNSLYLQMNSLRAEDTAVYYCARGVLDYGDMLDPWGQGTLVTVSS VL: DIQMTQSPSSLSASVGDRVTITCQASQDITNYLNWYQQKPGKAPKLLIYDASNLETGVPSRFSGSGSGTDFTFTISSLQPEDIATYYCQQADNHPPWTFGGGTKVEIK
Marked response: 0.424

Exam item: Now the binder Ab21 (antibody, V domains shown) VH: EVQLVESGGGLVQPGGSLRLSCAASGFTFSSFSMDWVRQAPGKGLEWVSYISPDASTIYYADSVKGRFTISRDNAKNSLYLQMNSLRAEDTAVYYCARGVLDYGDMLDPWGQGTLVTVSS VL: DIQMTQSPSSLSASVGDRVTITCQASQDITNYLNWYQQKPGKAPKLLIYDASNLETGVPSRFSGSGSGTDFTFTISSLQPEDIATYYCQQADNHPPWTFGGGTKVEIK
Marked response: 0.833

Provenance of the data: patent US20220064275A1
